- Tested on: CD23a mRNA
- test.description: siRNA-mediated knockdown of CD23a mRNA expression in cultured human ASM cells (RT-PCR)
- Assay type: cell-based
- conditions.used: FIG. 3; human ASM cells exposed 12 hr to IL-13 (50 ng/ml); Oligofectamine transfection, 100 nM each siRNA duplex
measured.quantity: CD23a mRNA expression in IL-13-treated ASM cells

substance	result
#106645: siRNA duplex against human CD23 (Applied Biosystems): sense 5′-GGUGACAAAGCUAAGGAUGtt-3′, antisense 5′-CAUCCUUAGCUUUGUCACCtc-3′ (sense GGUGACAAAGCUAAGGAUGTT; antisense CAUCCUUAGCUUUGUCACCTC; chemistry not given here)	markedly inhibited
#111060: siRNA duplex against human CD23 (Applied Biosystems): sense 5′-GGAAUUGAACGAGAGGAACtt-3′, antisense 5′-GUUCCUCUCGUUCAAUUCCtg-3′ (sense GGAAUUGAACGAGAGGAACTT; antisense GUUCCUCUCGUUCAAUUCCTG; chemistry not given here)	markedly inhibited
#111062: siRNA duplex against human CD23 (Applied Biosystems): sense 5′-CGAAGCUUCAGAUUUGCUGtt-3′, antisense 5′-CAGCAAAUCUGAAGCUUCGtt-3′ (sense CGAAGCUUCAGAUUUGCUGTT; antisense CAGCAAAUCUGAAGCUUCGTT; chemistry not given here)	no effect
#106644: siRNA duplex against human CD23 (Applied Biosystems): sense 5′-GGAGGUGACAAAGCUAAGGtt-3′, antisense 5′-CCUUAGCUUUGUCACCUCCtc-3′ (sense GGAGGUGACAAAGCUAAGGTT; antisense CCUUAGCUUUGUCACCUCCTC; chemistry not given here)	no effect

###

- Tested on: CD23a mRNA
- test.description: siRNA-mediated knockdown of CD23a mRNA expression in cultured human ASM cells (RT-PCR)
- Format: cell-based
- conditions.used: FIG. 3; human ASM cells exposed 12 hr to vehicle; Oligofectamine transfection, 100 nM each siRNA duplex
measured.quantity: CD23a mRNA expression in vehicle-exposed ASM cells

substance	result
#106645: siRNA duplex against human CD23 (Applied Biosystems): sense 5′-GGUGACAAAGCUAAGGAUGtt-3′, antisense 5′-CAUCCUUAGCUUUGUCACCtc-3′ (sense GGUGACAAAGCUAAGGAUGTT; antisense CAUCCUUAGCUUUGUCACCTC; chemistry not given here)	markedly inhibited
#111060: siRNA duplex against human CD23 (Applied Biosystems): sense 5′-GGAAUUGAACGAGAGGAACtt-3′, antisense 5′-GUUCCUCUCGUUCAAUUCCtg-3′ (sense GGAAUUGAACGAGAGGAACTT; antisense GUUCCUCUCGUUCAAUUCCTG; chemistry not given here)	markedly inhibited
#106644: siRNA duplex against human CD23 (Applied Biosystems): sense 5′-GGAGGUGACAAAGCUAAGGtt-3′, antisense 5′-CCUUAGCUUUGUCACCUCCtc-3′ (sense GGAGGUGACAAAGCUAAGGTT; antisense CCUUAGCUUUGUCACCUCCTC; chemistry not given here)	no effect
#111062: siRNA duplex against human CD23 (Applied Biosystems): sense 5′-CGAAGCUUCAGAUUUGCUGtt-3′, antisense 5′-CAGCAAAUCUGAAGCUUCGtt-3′ (sense CGAAGCUUCAGAUUUGCUGTT; antisense CAGCAAAUCUGAAGCUUCGTT; chemistry not given here)	no effect
